Value source: ChEMBL document CHEMBL1926642

Task for the reader: assign each of the following compounds its reported LC50.
Test system: K562
Test Description: Growth inhibition of human K562 cells after 48 hrs by sulforhodamine B assay
Format: functional
Condition Set: K562, 48 h

Kindly note the recorded LC50 for `COc1cc(/C=C/c2cc3c(c(OC)c2)O[C@]2(C)CC[C@@H](O)C(C)(C)[C@H]2C3)cc(O)c1C/C=C(\C)CCC=C(C)C` , which is 22.9 µM

Kindly note the recorded LC50 for `COc1cc(/C=C/c2cc(O)c3c(c2)C[C@@H]2C(C)(C)[C@H](O)CC[C@@]2(C)O3)cc(O)c1C/C=C(\C)CCC=C(C)C` , which is 100 µM

Kindly note the recorded LC50 for `COCOc1cc(/C=C/c2cc(C=O)c3c(c2)C[C@@H]2C(C)(C)[C@H](O)CC[C@@]2(C)O3)cc(OC)c1C/C=C(\C)CCC=C(C)C` , which is > 100 µM

Kindly note the recorded LC50 for `COc1cc(/C=C/c2cc(F)c3c(c2)C[C@@H]2C(C)(C)[C@H](O)CC[C@@]2(C)O3)cc(O)c1C/C=C(\C)CCC=C(C)C` , which is > 100 µM
